Hey, just so you know, these numbers are from ChEMBL document CHEMBL3792300.

- Tested on: MT4
- Experiment notes: Cytotoxicity against human MT4 cells after 48 hrs by MTS/PES method
- Assay type: cell-based
- Particulars: mt4, 48 h
Measurement type: CC50 (µM)
# output: bare number, implied unit µM

Examples with their reported CC50 follow.
{"Item smiles": "C=C1CN(C(=O)c2ccc(C)cc2)CCCN(Cc2ccccc2)CCCN(S(=O)(=O)c2ccc(C)cc2)C1", "Experimental target": "MT4", "Measurement type": "CC50", "Result value": 19.9}
{"Item smiles": "C=C1CN(S(=O)(=O)c2ccc(C)cc2)CCCN(Cc2ccccc2)CCCN(S(=O)(=O)c2ccccc2N)C1.Cl", "Experimental target": "MT4", "Measurement type": "CC50", "Result value": 70.3}

Kindly review the next compound as well.
input: Entry C=C1CN(S(=O)(=O)c2ccc(C)cc2)CCCN(Cc2ccccc2)CCCN(S(=O)(=O)c2ccc(O)cc2)C1.Cl : reported CC50 = ?
output: 13.6

----------
- Experiment notes: Binding affinity to human CD4 signal peptide expressed in CHO cells assessed as down-modulation of YFP-fused CD4 expression after 24 hrs by flow cytometric analysis
- Type: cell-based
pIC50: recorded values
Lab note: jot down the number only; don't add units.

Illustrative cases are given below, each with its answer.
{"Item smiles": "C=C1CN(S(=O)(=O)c2ccc(C)cc2)CCCN(Cc2ccccc2)CCCN(S(=O)(=O)c2ccc(N)cc2)C1.Cl", "Measurement type": "pIC50", "Result value": 5.62}
{"Item smiles": "C=C1CN(S(=O)(=O)c2ccc(C)cc2)CCCN(Cc2ccccc2)CCCN(S(=O)(=O)c2ccc3c(c2)OCO3)C1.Cl", "Measurement type": "pIC50", "Result value": 5.97}

input: Which pIC50 is listed for C=C1CN(S(=O)(=O)c2ccc(C)cc2)CCCN(Cc2ccccc2)CCCN(S(=O)(=O)c2cccc(N)c2)C1.Cl ?
output: 5.99

input: Okay, and C=C1CN(S(=O)(=O)c2ccc(C)cc2)CCCN(Cc2ccccc2)CCCN(S(=O)(=O)c2ccc(OC)cc2)C1.Cl ?
output: 6.54

input: Same question for C=C1CN(S(=O)(=O)c2ccc(C)cc2)CCCN(Cc2ccccc2)CCCN(S(=O)(=O)c2ccc([N+](=O)[O-])cc2)C1.Cl please.
output: 5.28

input: # repeat for C=C1CN(S(=O)(=O)c2ccc(C)cc2)CCCN(Cc2ccccc2)CCCN(S(=O)(=O)c2ccc(SC)cc2)C1.Cl
output: 6.64

input: Also check C=C1CN(S(=O)(=O)c2ccc(C)cc2)CCCN(Cc2ccccc2)CCCN(S(=O)(=O)c2ccc(C)cc2)C1
output: 6.4

----------
- Test system: MT4
- Experiment notes: Cytotoxicity against human MT4 cells after 48 hrs by MTS/PES method
- Assay type: cell-based
- Particulars: mt4, 48 h
Measurement type: CC50 (µM)
State just the number; it will be interpreted in µM.

The cases that follow already have their CC50 on record.
{"Item smiles": "C=C1CN(C(=O)c2ccccc2)CCCN(Cc2ccccc2)CCCN(S(=O)(=O)c2ccc(C)cc2)C1", "Experimental target": "MT4", "CC50 (µM)": 15.8}
{"Item smiles": "C=C1CN(S(=O)(=O)c2ccc(C)cc2)CCCN(CC2CCCCC2)CCCN(S(=O)(=O)c2ccc(OCCCC)cc2)C1", "Experimental target": "MT4", "CC50 (µM)": 13.2}
{"Item smiles": "C=C1CN(S(=O)(=O)c2ccc(C)cc2)CCCN(CC2CCCCC2)CCCN(S(=O)(=O)c2ccc(-n3cccc3)cc2)C1", "Experimental target": "MT4", "CC50 (µM)": 48}
{"Item smiles": "C=C1CN(S(=O)(=O)c2ccc(C)cc2)CCCN(CC2CCCCC2)CCCN(S(=O)(=O)c2ccc(OCCCN)cc2)C1", "Experimental target": "MT4", "CC50 (µM)": 11.6}
{"Item smiles": "C=C1CN(S(=O)(=O)c2ccc(C)cc2)CCCN(CC2CCCCC2)CCCN(S(=O)(=O)c2ccc(N(C)C)cc2)C1", "Experimental target": "MT4", "CC50 (µM)": 44}
{"Item smiles": "C=C1CN(S(=O)(=O)c2ccc(C)cc2)CCCN(CC2CCCCC2)CCCN(S(=O)(=O)c2ccc(OC)cc2)C1", "Experimental target": "MT4", "CC50 (µM)": 99}

Note: attention shifts to another entry.
input: So what does the record say about CC50 for C=C1CN(C(=O)c2ccc(OC)cc2)CCCN(Cc2ccccc2)CCCN(S(=O)(=O)c2ccc(C)cc2)C1 ?
output: 23.6
